Hey, just so you know, these numbers are from patent US20180044434A1.

Reported OD 490/630 nm values follow for various binders
Molecular target: T1, Ala mutant of TA0096, SEQ ID NO: 42
T1 peptide: EENMDDQWMQDEMEIAY
Assay: ELISA, coated peptide
Form: value (number only, do not type unit).

-- ask Fill in reported OD 490/630 nm for this entry: E9 (antibody, V domains shown, Chicken variable regions in a mouse chimeric antibody (IgG1); also called anti-PAD4 antibody E9) VH: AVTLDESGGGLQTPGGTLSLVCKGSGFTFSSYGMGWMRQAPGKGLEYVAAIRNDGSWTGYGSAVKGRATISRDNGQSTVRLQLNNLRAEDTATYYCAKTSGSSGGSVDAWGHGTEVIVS VL: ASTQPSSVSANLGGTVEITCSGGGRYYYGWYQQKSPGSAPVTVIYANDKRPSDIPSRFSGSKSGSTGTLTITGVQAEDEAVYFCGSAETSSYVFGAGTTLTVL
-- reply 1.83

-- ask Give OD 490/630 nm for G8 (antibody, V domains shown, Chicken variable regions in a mouse chimeric antibody (IgG1); also called anti-PAD4 antibody G8) VH: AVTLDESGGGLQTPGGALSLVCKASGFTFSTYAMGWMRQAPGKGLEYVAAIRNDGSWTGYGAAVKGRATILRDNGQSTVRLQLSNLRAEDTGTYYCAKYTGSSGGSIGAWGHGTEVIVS VL: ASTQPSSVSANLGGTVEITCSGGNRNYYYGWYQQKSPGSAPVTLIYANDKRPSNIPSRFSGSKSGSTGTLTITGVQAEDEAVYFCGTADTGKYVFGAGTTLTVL
-- reply 1.86

-- ask Determine its reported OD 490/630 nm: A11 (antibody, V domains shown, Chicken variable regions in a mouse chimeric antibody (IgG1); also called anti-PAD4 antibody A11) VH: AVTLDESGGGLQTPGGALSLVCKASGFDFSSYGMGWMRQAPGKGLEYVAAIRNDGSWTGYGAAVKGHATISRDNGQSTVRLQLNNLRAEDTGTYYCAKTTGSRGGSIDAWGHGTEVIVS VL: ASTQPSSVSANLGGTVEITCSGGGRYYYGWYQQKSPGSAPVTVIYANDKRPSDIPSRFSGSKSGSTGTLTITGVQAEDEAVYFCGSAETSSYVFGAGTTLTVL
-- reply 1.88
